This collection of values is drawn from patent US10517889B2.

Listing: % Inhibition of selected substances
tested on: human SMAD7 mRNA; experiment: Antisense inhibition of human SMAD7 mRNA expression in Hep3B cells by 3-10-3 cEt gapmers, 10,000 nM, electroporation (Example 2); type: cell-based; conditions: Hep3B cells, electroporation with 10,000 nM antisense oligonucleotide, approximately 24 hours, SMAD7 mRNA by RT-PCR (RTS5062), relative to untreated control cells
Strand notation (5' to 3'): a small letter for the sugar, then the base; units joined by * are phosphorothioate-linked, units joined directly phosphodiester-linked; [ ] holds rarer units or linkages, { } end groups; capitals alone tell only the bases. k = constrained ethyl (cEt); [5mC] = 5-methylcytosine; d = 2'-deoxy (DNA)

800041 (kG*k[5mC]*k[5mC]*dA*d[5mC]*d[5mC]*dT*dA*dG*dG*d[5mC]*dA*dA*kG*kG*kG; antisense) [compound 800041]: 0%

Given the substance 798666 (k[5mC]*kA*kT*dG*d[5mC]*dG*d[5mC]*d[5mC]*dA*dG*dT*d[5mC]*dT*k[5mC]*k[5mC]*k[5mC]; antisense) [compound 798666] , what is its reported % Inhibition? 33%

Look up % Inhibition for this substance: 830110 (k[5mC]*k[5mC]*kA*dT*dT*d[5mC]*dA*dT*dT*dA*dA*dG*d[5mC]*k[5mC]*k[5mC]*kG; antisense) [compound 830110] 36%

Bench note: what % Inhibition did 830158 (antisense kA*kA*kT*dT*dG*dA*dG*dA*dA*d[5mC]*dT*dG*dT*kG*k[5mC]*k[5mC]) [compound 830158] show? 43%

Param item = 799428 (antisense kG*kA*k[5mC]*d[5mC]*dA*d[5mC]*dA*d[5mC]*dA*dG*dT*dA*d[5mC]*k[5mC]*kT*kA) [compound 799428] ; retrieve measured % Inhibition. 47%

Name the reported % Inhibition value associated with the substance 799861 (kA*k[5mC]*k[5mC]*dG*d[5mC]*dA*dT*dG*d[5mC]*dG*dA*dT*d[5mC]*kG*kG*kT; antisense) [compound 799861] 15%

Item under review: 799904 (antisense kA*k[5mC]*kT*d[5mC]*dA*dG*dA*dG*d[5mC]*dA*dG*d[5mC]*dT*k[5mC]*kT*k[5mC]) [compound 799904] . Reported % Inhibition? 61%

What % Inhibition value was documented for this substance, 799511 (antisense kT*kA*kA*dT*dG*dA*d[5mC]*dA*dA*dT*dT*d[5mC]*d[5mC]*kA*kG*k[5mC]) [compound 799511] ? 65%

Give its % Inhibition value. Item: 800023 (kA*kG*kG*dA*dA*dG*dA*dG*d[5mC]*d[5mC]*dT*dT*dG*kG*k[5mC]*k[5mC]; antisense) [compound 800023] 0%

I'd like to know its % Inhibition. The substance in question is 830202 (antisense kT*k[5mC]*kT*dG*dA*dA*dG*dG*d[5mC]*dT*dA*d[5mC]*dA*k[5mC]*k[5mC]*kA) [compound 830202] 50%

So what's the measured % Inhibition for this one? 799921 (antisense k[5mC]*kT*kA*dA*dT*dT*dA*dG*dT*dG*dA*d[5mC]*dT*kG*kT*kG) [compound 799921] 75%

---

tested on: human SMAD7 mRNA; assay: Antisense inhibition of human SMAD7 mRNA expression in Hep3B cells by 3-10-3 cEt gapmers, 10,000 nM, electroporation (Example 2); type: cell-based; conditions: Hep3B cells, electroporation with 10,000 nM antisense oligonucleotide, approximately 24 hours, primer probe set RTS5062, relative to untreated control cells
Strand notation (5' to 3'): a small letter for the sugar, then the base; units joined by * are phosphorothioate-linked, units joined directly phosphodiester-linked; [ ] holds rarer units or linkages, { } end groups; capitals alone tell only the bases. k = constrained ethyl (cEt); [5mC] = 5-methylcytosine; d = 2'-deoxy (DNA)
quantity measured: % Inhibition (%)
Please state the figure in %; there is no need to write the unit.

799180 (antisense kG*kA*kA*dA*dA*dA*dT*dA*dG*d[5mC]*dT*dT*dA*kT*kG*kT) [compound 799180]: 20

For 798941 (antisense kA*kA*kA*dA*dA*dA*dA*d[5mC]*dG*dA*d[5mC]*d[5mC]*dA*kA*kA*kG) [compound 798941] , what is its reported % Inhibition? 40

Consider the substance shown here: 799157 (antisense kG*kT*kT*dG*dT*dA*dG*dA*dA*dG*dA*dA*dA*kT*kG*kA) [compound 799157] What is its recorded % Inhibition? 39
